The measurements presented in this section are drawn from patent US20120289501A1.

# target: IGF1R (Homo sapiens)
# Sequence (P08069 31-1367): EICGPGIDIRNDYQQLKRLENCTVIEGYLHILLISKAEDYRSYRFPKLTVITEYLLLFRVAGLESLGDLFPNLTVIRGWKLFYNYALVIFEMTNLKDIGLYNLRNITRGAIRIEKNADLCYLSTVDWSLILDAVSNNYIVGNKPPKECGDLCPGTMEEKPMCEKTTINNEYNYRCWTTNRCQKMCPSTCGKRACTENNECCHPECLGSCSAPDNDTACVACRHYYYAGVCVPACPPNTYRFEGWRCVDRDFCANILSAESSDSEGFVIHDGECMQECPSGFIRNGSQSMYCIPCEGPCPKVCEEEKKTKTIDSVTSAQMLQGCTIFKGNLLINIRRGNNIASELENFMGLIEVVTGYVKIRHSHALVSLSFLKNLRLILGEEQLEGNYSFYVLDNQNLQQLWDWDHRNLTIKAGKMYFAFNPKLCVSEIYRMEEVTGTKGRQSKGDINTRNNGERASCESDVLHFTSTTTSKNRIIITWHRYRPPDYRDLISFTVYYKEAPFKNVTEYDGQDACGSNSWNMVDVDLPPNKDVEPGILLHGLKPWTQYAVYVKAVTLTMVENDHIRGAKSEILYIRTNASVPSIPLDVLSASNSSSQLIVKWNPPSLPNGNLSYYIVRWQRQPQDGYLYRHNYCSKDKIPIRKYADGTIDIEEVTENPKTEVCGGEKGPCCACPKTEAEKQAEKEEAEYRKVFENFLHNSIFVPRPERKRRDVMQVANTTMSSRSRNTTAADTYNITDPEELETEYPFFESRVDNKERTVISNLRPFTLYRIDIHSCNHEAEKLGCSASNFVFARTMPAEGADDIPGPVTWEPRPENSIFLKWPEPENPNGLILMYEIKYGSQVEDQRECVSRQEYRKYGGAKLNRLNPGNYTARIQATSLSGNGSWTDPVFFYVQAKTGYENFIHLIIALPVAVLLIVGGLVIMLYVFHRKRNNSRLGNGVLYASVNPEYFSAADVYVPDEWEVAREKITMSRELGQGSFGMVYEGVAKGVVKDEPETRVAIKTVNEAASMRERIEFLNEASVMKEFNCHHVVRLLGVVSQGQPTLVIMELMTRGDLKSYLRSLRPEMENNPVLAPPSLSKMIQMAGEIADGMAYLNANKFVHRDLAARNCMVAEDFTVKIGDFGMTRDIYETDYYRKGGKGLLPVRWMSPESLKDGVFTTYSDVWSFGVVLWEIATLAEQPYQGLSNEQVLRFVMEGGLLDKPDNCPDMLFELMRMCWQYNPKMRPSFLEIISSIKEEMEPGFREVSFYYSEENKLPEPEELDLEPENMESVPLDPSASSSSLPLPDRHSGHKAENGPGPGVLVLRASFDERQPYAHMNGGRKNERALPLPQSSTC
# test.details: Cellular IGF-1R assay: inhibition of IGF1R phosphorylation in transduced Hek293 cells, capture ELISA (MSD)
# Type: cell-based
# Parameters: Hek293 cells transduced with the corresponding receptors; expressed in transfected cells; host or cells: Hek293 (Hek293-IGF1R)
This listing pairs molecules with measured pIC50.
Entry type: numeric. Quantity: pIC50, the -log10 of concentration in molar units.

These solved cases illustrate the format of a correct answer.
Field request: pIC50 | item: Nc1ncnc2c1c(-c1ccc3c(c1)OC(c1ccccn1)CC3)cn2C1CC(CN2CC3CC2CS3(=O)=O)C1 (stereo not drawn) 7.16

Fill in the blank: the reported pIC50 of Nc1ncnc2c1c(-c1ccc3c(c1)OC(c1ccccc1)CC3)cn2[C@H]1C[C@@H](CN2CCS(=O)(=O)CC2)C1 (mixture of isomers) is ____. 8.52

Kindly consider the entry below.
Look at this molecule and give its reported pIC50. Nc1nccn2c1c(-c1ccc3c(c1)OC(c1ccccc1)CC3)nc2[C@H]1C[C@@H](CO)C1 (mixture of isomers) 7.12

* * *

# target: IGF1R (Homo sapiens)
# test.details: Cellular IGF-1R assay: inhibition of IGF1R phosphorylation in transduced Hek293 cells, capture ELISA (MSD)
# Type: cell-based
# Design: Hek293 cells transduced with the corresponding receptors; expressed in transfected cells; host or cells: Hek293 (Hek293-IGF1R)
readout: IC50

Here is how some molecules turned out for IC50.
I am curious: what IC50 value has been reported for Nc1ncnc2c1c(-c1ccc3c(c1)OC(c1ccccc1)CC3)cn2C1CC(O)(CO)C1 (single isomer, unassigned) [Example 27] ? 31 to 112 nM

Name the recorded IC50 for Nc1ncnc2c1c(-c1ccc3c(c1)OC(C1CCCO1)CC3)cn2C1CC(CN2CCS(=O)(=O)CC2)C1 (single isomer, unassigned) [Example 30] . 4 to 5 nM

Let us move to another entry and its IC50.
Can you look up the measured IC50 of Nc1ncnc2c1c(-c1ccc3c(c1)OC(c1ccccc1)CC3)cn2[C@H]1C[C@H](CO)C1 (mixture of isomers) [Example 2] for me? 30 to 103 nM
